Data origin, for the record: PubChem BioAssay AID1240

- system-under-test: Bcl-2-like protein 10 (Homo sapiens) (UniProt Q9HD36)
- Sequence (Q9HD36 whole entry, looked up): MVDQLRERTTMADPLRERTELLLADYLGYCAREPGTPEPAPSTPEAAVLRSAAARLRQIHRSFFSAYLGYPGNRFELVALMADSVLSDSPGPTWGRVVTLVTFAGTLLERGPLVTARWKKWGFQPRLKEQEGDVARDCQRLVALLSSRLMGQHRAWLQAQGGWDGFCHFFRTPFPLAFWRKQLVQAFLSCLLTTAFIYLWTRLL
- protocol-text: TR3 peptide-Bcl-B binding displacers, biochemical primary FP assay, phenotype converters (AID 1240);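 note: 0% = Bcl-B with tracer peptide and DMSO and 100% = tracer peptide lacking Bcl-B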
- particulars: GST-Bcl-B / FITC-TR3 peptide fluorescence polarization; stronger effect = higher value; compound at 3.75 mg/L
Among all 50,000 compounds or so, about 800 (1.6%) showed an effect of 50% or more. What follows is part of a selection rich in strong results, with near analogues and random picks from the rest.
quantity-measured: displacement (%)

| item-smiles | system-under-test | value-units | endpoint-result |
| --- | --- | --- | --- |
| CCOC(=O)C1=C(O)/C(=C/c2ccc(Cl)cc2)SC1=Nc1ccc(OC)cc1 | Bcl-2-like protein 10 (Homo sapiens) (UniProt Q9HD36) | % | 3.1 |
| O=C1OC(c2ccccc2Br)=N/C1=C\c1cc2c(cc1Cl)OCO2 | Bcl-2-like protein 10 (Homo sapiens) (UniProt Q9HD36) | % | 116 |
| O=C1OC(c2ccccc2F)=N/C1=C\c1ccc(Br)cc1 | Bcl-2-like protein 10 (Homo sapiens) (UniProt Q9HD36) | % | 9 |
| COc1ccccc1C1=N/C(=C\c2ccc3c(c2)OCO3)C(=O)O1 | Bcl-2-like protein 10 (Homo sapiens) (UniProt Q9HD36) | % | 111 |
| CN(C)/C=C1\N=C(c2ccccc2Br)OC1=O | Bcl-2-like protein 10 (Homo sapiens) (UniProt Q9HD36) | % | -1.7 |
| COc1ccccc1C1=N/C(=C\c2ccc([N+](=O)[O-])cc2)C(=O)O1 | Bcl-2-like protein 10 (Homo sapiens) (UniProt Q9HD36) | % | 27.4 |
| O=C1OC(c2ccccc2F)=N/C1=C\c1ccc2c(c1)OCO2 | Bcl-2-like protein 10 (Homo sapiens) (UniProt Q9HD36) | % | 80 |
| CCOC(=O)C1=C(O)/C(=C/c2ccc(N(C)C)cc2)SC1=Nc1ccc(Cl)cc1 | Bcl-2-like protein 10 (Homo sapiens) (UniProt Q9HD36) | % | 170 |
| CCOC(=O)C1=C(O)/C(=C/c2ccc(N(C)C)cc2)SC1=Nc1cccc(Cl)c1 | Bcl-2-like protein 10 (Homo sapiens) (UniProt Q9HD36) | % | -53.7 |
| O=C1/C(=C\c2ccc3c(c2)OCO3)N=C(c2ccccc2)N1c1ccc(F)cc1 | Bcl-2-like protein 10 (Homo sapiens) (UniProt Q9HD36) | % | 179 |

----------
- system-under-test: Bcl-2-like protein 10 (Homo sapiens)
- protocol-text: TR3 peptide-Bcl-B binding displacers, biochemical primary FP assay, phenotype converters (AID 1240);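 note: 0% = Bcl-B with tracer peptide and DMSO and 100% = tracer peptide lacking Bcl-B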
- particulars: GST-Bcl-B / FITC-TR3 peptide fluorescence polarization; stronger effect = higher value; compound at 3.75 mg/L
Among all 50,000 compounds or so, about 800 (1.6%) showed an effect of 50% or more. The entries come from a sample that favours strong results as a whole.

| item-smiles | displacement, % |
| --- | --- |
| CC(=O)Nc1ccc2sc(C)nc2c1 | 12.9 |
| O=C1/C(=C\c2cccc(C(F)(F)F)c2)SC(=S)N1Cc1ccccc1 | 11 |
| O=C(NC1=Nc2cccc3cccc1c23)c1cccc(C(F)(F)F)c1 | 62.1 |
| Cc1cc(NC(=O)c2ccc(Cl)cc2Cl)ccc1NC(=O)c1ccccc1 | -2.3 |
| COC(=O)c1cc(-c2ccc(C)cc2)nc2ccccc12 | 2.1 |
| CC(C)Cc1nnc(NC(=O)Nc2ccc(Cl)c(Cl)c2)s1 | 3.9 |
| O=[N+]([O-])c1cccc(S(=O)(=O)N2CCc3ccccc3C2)c1 | 0 |
| COc1ccc(C(=O)NNC2=Nc3cccc4cccc2c34)cc1 | -17.1 |
| Cc1ccccc1C(=O)O/N=C(\N)c1cccc([N+](=O)[O-])c1 | -7.1 |
| O=C(Nc1cccc(C(F)(F)F)c1)c1cccc(N2C(=O)c3ccccc3C2=O)c1 | -5.6 |
| CC1=CC(=O)C=C/C1=N\OS(=O)(=O)c1ccccc1 | 25.4 |
